Molecular target: Human recombinant PDE2A (hPDE2A) (Homo sapiens, UniProt O00408)
Construct: His tag (inferred from metal chelate purification); made in house; host or cells: Sf9 insect cells (baculovirus)
Sequence (O00408 whole entry): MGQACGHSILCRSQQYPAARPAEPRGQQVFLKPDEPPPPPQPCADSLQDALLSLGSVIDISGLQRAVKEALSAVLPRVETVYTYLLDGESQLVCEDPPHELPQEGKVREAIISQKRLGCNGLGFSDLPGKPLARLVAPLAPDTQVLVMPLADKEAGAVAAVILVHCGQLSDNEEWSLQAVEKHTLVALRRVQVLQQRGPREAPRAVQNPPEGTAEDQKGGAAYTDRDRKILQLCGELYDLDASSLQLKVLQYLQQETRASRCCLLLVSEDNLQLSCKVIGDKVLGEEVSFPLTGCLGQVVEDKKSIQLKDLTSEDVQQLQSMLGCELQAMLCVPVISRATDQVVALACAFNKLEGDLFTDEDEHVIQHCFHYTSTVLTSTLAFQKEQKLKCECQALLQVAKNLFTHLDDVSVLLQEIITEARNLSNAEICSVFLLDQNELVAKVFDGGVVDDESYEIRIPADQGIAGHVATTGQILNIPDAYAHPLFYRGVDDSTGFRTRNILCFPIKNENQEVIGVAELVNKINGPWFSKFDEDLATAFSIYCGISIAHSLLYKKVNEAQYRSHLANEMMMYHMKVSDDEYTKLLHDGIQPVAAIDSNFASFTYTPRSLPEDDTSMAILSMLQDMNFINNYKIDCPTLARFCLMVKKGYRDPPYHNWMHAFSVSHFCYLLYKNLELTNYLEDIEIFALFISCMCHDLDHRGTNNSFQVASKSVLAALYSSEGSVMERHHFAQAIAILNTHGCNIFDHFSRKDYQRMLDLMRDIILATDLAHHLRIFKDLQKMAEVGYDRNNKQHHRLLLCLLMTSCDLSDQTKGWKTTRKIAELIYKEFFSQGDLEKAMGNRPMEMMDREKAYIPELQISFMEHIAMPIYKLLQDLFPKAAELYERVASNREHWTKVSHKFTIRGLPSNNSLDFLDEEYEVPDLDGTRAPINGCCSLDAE
Assay: In vitro assay PDE2A (SPA, 3H-cGMP hydrolysis)
Type: biochemical
attribute.measured: hPDE2A Emax

Challenge: Quick one: give measured hPDE2A Emax for O=C(c1ccc2ncsc2c1)N1[C@H]2CC[C@@H]1[C@H](c1cc(C(F)F)nc3ncnn13)CC2 [Compound 25b]
Response given: 92

Challenge: Quick one: give measured hPDE2A Emax for Cc1cc(C(=O)N2[C@H]3CC[C@H](c4cc(C(F)F)nc5ncnn45)[C@@H]2CC3)cc(C)n1 (racemic)
Response given: 100

Challenge: Quick one: give measured hPDE2A Emax for Cc1cc(C(=O)N2CC[C@@H](C)[C@](F)(c3cc(C(F)F)nc4ncnn34)C2)cc(C2CC2)n1 [Compound 24b]
Response given: 98

Challenge: Quick one: give measured hPDE2A Emax for `Cc1cc(C(=O)N2CC[C@H](C)[C@@H](c3cc(C)nc4ncnn34)C2)cc(C)n1`
Response given: 88

Challenge: Quick one: give measured hPDE2A Emax for Cc1cc(C(=O)N2CC[C@@H](C)[C@H](c3cc(C#N)nc4ncnn34)C2)cc(C)n1 [Compound 26a]
Response given: 21

Challenge: Quick one: give measured hPDE2A Emax for `Cc1cc(C(=O)N2CC[C@H](C)[C@@H](c3cc(C(F)F)nc4ncnn34)C2)cc(C)n1`
Response given: 54

Challenge: Quick one: give measured hPDE2A Emax for `O=C(c1ccnc2ccccc12)N1[C@H]2CC[C@H](c3cc(C(F)F)nc4ncnn34)[C@@H]1CC2`
Response given: 89

Challenge: Quick one: give measured hPDE2A Emax for Cc1cc(C(=O)N2CC[C@H](C)[C@@H](c3cc(C#N)nc4ncnn34)C2)cc(C)n1 [Compound 26b]
Response given: 98
